The compounds listed here are annotated with their GI50.
Test system: SK-OV-3
Test: NCI tumour cell line growth inhibition, 48 h
Activity calls are given as the source filed them. Cut-off read from the data, not from the text of the source: active = GI50 up to about 1.1 µM and inactive = higher.
MEASURE: GI50

* O=C(C(=O)c1cc(-c2ccccc2)nc2ccc3ccccc3c12)c1ccccc1 | 46.7 µM (inactive)
* CCC(=O)CCC1=Nc2nnc(CCCCc3nnc4n3C(=O)C(CCC(=O)CC)=N4)n2C1=O | > 100 µM (inactive)
* O=C(OCc1ccccc1)N(CCCCN(CCCNCc1ccccc1)C(=O)OCc1ccccc1)CCCNCc1ccccc1 | 14.5 µM (inactive)
* COc1ccccc1N1C(=O)CSC1c1c[nH]c2ccccc12 (stereo not given) | > 100 µM (inactive)
* O=C1CCCC2=C1CC1=C(CCCC1=O)N2c1ccc(Cl)cc1 | > 100 µM (inactive)

----------
Test system: NCI-H522
Assay: NCI tumour cell line growth inhibition, 48 h
Activity calls are given as the source filed them. Rule as the data show it: active = GI50 up to about 1.1 µM and inactive = higher.
MEASURE: GI50

* COc1ccc2c(c1)c1nn(CCN3CCCCC3)c3ccc4c(=O)n(CCN(C)C)c(=O)n2c4c13 | < 0.01 µM (active)
* O=C(/C=C\c1ccccc1)Oc1ccc(/C=C2\CCC/C(=C\c3ccc(OC(=O)/C=C\c4ccccc4)cc3)C2=O)cc1 | > 100 µM (inactive)
* C=CCC1C(=O)C(C(=O)OC)N2CCc3c([nH]c4ccccc34)C12 (stereo not drawn) | 80 µM (inactive)
* CCC(=O)CCC1=Nc2nnc(CCCCc3nnc4n3C(=O)C(CCC(=O)CC)=N4)n2C1=O | > 100 µM (inactive)
* CCOc1ccc2c(c1)[n+]([O-])c(-c1ccc([N+](=O)[O-])cc1)c(N)[n+]2[O-] | 56.4 µM (inactive)
* Cn1c(-c2c(C3=CC(=O)N(c4ccccc4)C3=O)c3ccccc3n2C)cc2ccccc21 | 50 µM (inactive)
* COC(=O)[C@@]12CN(C)[C@@H](C(C)(C)C)N1C(=O)OC2c1ccccc1 (stereo partly drawn) | > 100 µM (inactive)
* Cc1nc2sc3ccccc3n2c(=O)c1/N=N/c1ccc(Br)cc1 | 38.5 µM (inactive)

----------
System: XF498
Assay: NCI tumour cell line growth inhibition, 48 h
Calls of active or inactive are those of the source. No stated cut-off is given here; in the data, active = GI50 up to about 1.1 µM and inactive = higher.
MEASURE: GI50

• O=C1C=C(N2CCCC2)C=C(N2CCCC2)C1 = > 100 µM (inactive)
• CC(C)(C)c1cc(C#N)c2c(c1)C(=O)OC2(c1ccccc1)c1ccccc1C#N (stereo not given) = > 100 µM (inactive)
• O=C1C2=C(c3ccccc31)C(c1ccccc1Cl)N1C(=O)CSC1=N2 (stereo not given) = 64 µM (inactive)
• CC[P+](C)(Cc1ccccc1)c1ccccc1.O=C(OC(C(=O)[O-])C(OC(=O)c1ccccc1)C(=O)O)c1ccccc1 (stereo not given) = > 100 µM (inactive)
• O=C1C(Cl)N(c2ccccc2Cl)C1c1c[nH]c2ccccc12 (stereo not given) = > 100 µM (inactive)
• C=C(CN(C)C)C(=O)c1ccc(OC2OC(COC(C)=O)C(OC(C)=O)C(OC(C)=O)C2OC(C)=O)cc1 (stereo not given) = 1.69 µM (inactive)
• COC1/C=C\C=C(/C)C(=O)NC2=CC(=O)C(N)=C(CC(C)CC(OC)C(O)C(C)C=C(C)C1OC(N)=O)C2=O (stereo not given) = 0.0565 µM (active)
• O=C(CSC(=S)N1CCCCC1)Nc1nc2c(s1)CCCC2 = 19.3 µM (inactive)
• Cc1ccc(C)c2c1CCc1cc3ccccc3nc1-2 = > 100 µM (inactive)
• O=C1COc2cc(NC(=S)Nc3ccccc3)ccc2N1 = > 100 µM (inactive)

----------
Tested on: OVCAR-3
Test: NCI tumour cell line growth inhibition, 48 h
Active and inactive are the calls of the source. Rule as the data show it: active = GI50 up to about 1.1 µM and inactive = higher.
Listed next: entries and their corresponding GI50.
MEASURE: GI50

- O=C(O)C1OC(n2cc(F)c(=O)[nH]c2=O)CC1O (stereo unspecified): 60.1 µM (inactive)
- CCOC(=O)C(=O)Nc1c(C)cccc1C(C)(C)C: > 100 µM (inactive)
- Cc1ccc(NC(=O)C(=O)C(C(=O)c2ccc3ccccc3c2)C2OC(=O)c3ccccc32)c(C)c1 (stereo unspecified): 9.38 µM (inactive)
- Cc1cc(=O)oc2cc(SC(=O)N(C)C)ccc12: > 100 µM (inactive)
- COC(=O)CC(=O)Nc1sccc1S(=O)(=O)c1ccccc1: 16.4 µM (inactive)
- CCCCCCCC1(N=[N+]=[N-])C(=O)Nc2ccccc2C1=O (stereo unspecified): 16.1 µM (inactive)
- COc1ccc(/N=c2/[nH]c(N)c(C(=O)c3ccc(OC)cc3)s2)cc1: 0.255 µM (active)
- C=CCC1C(=O)C(C(=O)OC)N2CCc3c([nH]c4ccccc34)C12 (stereo unspecified): > 100 µM (inactive)
- COc1ccccc1N1C(=O)CSC1c1c[nH]c2ccccc12 (stereo unspecified): > 100 µM (inactive)
- C=CCC1(CN(C)C)CC/C(=C\c2ccc(OC)cc2)C1=O (stereo unspecified): > 100 µM (inactive)
- CCN(CC)P1(=S)Oc2ccc3ccccc3c2-c2c(ccc3ccccc23)O1: > 100 µM (inactive)

----------
Tested on: SW-620
Test: NCI tumour cell line growth inhibition, 48 h
The source made the active and inactive calls. No stated cut-off is given here; in the data, active = GI50 up to about 1.1 µM and inactive = higher.
Labels: TRUE for active, FALSE for inactive

- O=C1/C(=C/c2ccc(Cl)cc2)CSc2ccccc21: FALSE
- COc1ccc(CN(Cc2ccc(OC)cc2)C(=O)CC2(O)CCc3ccccc3C2)cc1 (configuration not stated): FALSE
- Cc1cccc(C)c1NC(=O)/C=C/c1ccccc1: FALSE
- Cc1ccc(S(=O)(=O)C2=c3nc4ccccc4cc3=C3C(=O)c4ccccc4C(=O)C32)cc1 (configuration not stated): FALSE
- CC(C)CCc1n[nH]c(=O)n1/N=C\c1ccccc1: FALSE
- O=C(c1ccccc1)c1nc2c(Cl)ccc(Cl)c2cc1C(Br)Br: TRUE
- C[N+](C)=c1nc(N2CCOCC2)ss1: FALSE
- CC(NC1=NCCO1)c1cccs1 (configuration not stated): FALSE
- O=C1NC2(CCCCC2)C2CCCCC=C12 (configuration not stated): FALSE
- COc1ccc2c3c(c(C(=O)c4ccccc4)oc13)CCC2: FALSE
- C=CCC1C(=O)C(C(=O)OC)N2CCc3c([nH]c4ccccc34)C12 (configuration not stated): FALSE
- O=c1c2ccccc2c2c3c1cccc3c1cccc3c(=O)c4ccccc4c2c31: FALSE

----------
Overview of reported GI50 across a group of molecules:
System: KM-20L2
Assay: NCI tumour cell line growth inhibition, 48 h
The source made the active and inactive calls. No stated cut-off is given here; in the data, active = GI50 up to about 1.1 µM and inactive = higher. Peptide text beside a SMILES is read from it.
MEASURE: GI50

- COc1ccc(C(=O)C(CO)Oc2ccccc2OC)cc1OC (centres undefined): > 100 µM (inactive)
- COc1cc(C(=O)C/C(CCCC(=O)Nc2ccccc2[N+](=O)[O-])=N/NC(=O)c2cc3ccccc3cc2O)ccc1O: 27.4 µM (inactive)
- Cc1ccc(C)c2c1CCc1cc3ccccc3nc1-2: > 100 µM (inactive)
- C=C1C(=O)OC2/C=C(CO)/C=C\C3OC3(C)CC(OC(=O)/C(C)=C/COC(C)=O)C12 (centres undefined): 4.7 µM (inactive)
- Cc1ccc(S(=O)(=O)N2CCC2c2ccccc2)cc1 (centres undefined): > 100 µM (inactive)
- Clc1ccc(-c2c(C3=NCCN3)nnn2-c2ccccc2)cc1: 85.3 µM (inactive)
- CCC(=O)CCC1=Nc2nnc(CCCCc3nnc4n3C(=O)C(CCC(=O)CC)=N4)n2C1=O: > 100 µM (inactive)
- CC(C)(C)c1cc(C#N)c2c(c1)C(=O)OC2(c1ccccc1)c1ccccc1C#N (centres undefined): > 100 µM (inactive)
- CC(C)CC(NC(=O)C(CC(C)C)NC(=O)C(Cc1c[nH]cn1)NC(=O)C(C)NC(=O)C(NC(=O)C(C)NC(=O)C(Cc1c[nH]c2ccccc12)NC(=O)C(CCC(=O)O)NC(=O)C(N)Cc1ccccc1)C(C)C)C(N)=O (centres undefined) (H-FEWAVAHLL-NH2; configuration not given here): > 100 µM (inactive)
- N#CCc1ccccc1/C(C#N)=C1/OC(=N)C(c2ccccc2CC#N)C1=O (centres undefined): > 100 µM (inactive)
- NC(=O)CCC(NC(=O)Cc1ccccc1)C(=O)O.NC(CCC(=O)NC(=O)Cc1ccccc1)C(=O)O (centres undefined): > 8130 µM (inactive)
- O=C1C=C(N2CCCC2)C=C(N2CCCC2)C1: > 100 µM (inactive)
- CC1OC(CO)(n2cnc3c(N)ncnc32)C(O)C1O (centres undefined): > 100 µM (inactive)
- CC(=O)OCC1OC(n2c(=S)n(-c3ccccc3)c(=O)c3cc(Br)ccc32)C(OC(C)=O)C1OC(C)=O (centres undefined): > 100 µM (inactive)
- COc1ccc2c3c([nH]c2c1[N+](=O)[O-])C(C)N(Cc1ccccc1)CC3 (centres undefined): 3.78 µM (inactive)
- O=c1c2ccccc2n2cnc3ccc(NCCNCCO)c1c32: 1.41 µM (inactive)
- COc1cccc(/C=N\NC(=O)C(C)SC(C)C(=O)N/N=C/c2cccc(OC)c2)c1 (centres undefined): 47 µM (inactive)
- C[N+](C)(C)CC(=O)N/N=c1\cc(C(=O)Nc2ccc(N=O)cc2C#N)oc2cc(O)ccc12: > 100 µM (inactive)
- CCOC(=O)C(=O)Nc1c(C)cccc1C(C)(C)C: > 100 µM (inactive)
- O=C1C2=C(c3ccccc31)C(c1ccccc1Cl)N1C(=O)CSC1=N2 (centres undefined): > 100 µM (inactive)
- Cn1c(=O)c2nc(N3CCCCC3)cnc2n(C)c1=O: > 100 µM (inactive)
- CO[C@H]1ON=C(c2c(C)cc(C)cc2C)[C@@H]1C1(c2ccccc2)ON=C(c2c(C)cc(C)cc2C)O1 (some centres undefined): > 100 µM (inactive)
- CC[P+](C)(Cc1ccccc1)c1ccccc1.O=C(OC(C(=O)[O-])C(OC(=O)c1ccccc1)C(=O)O)c1ccccc1 (centres undefined): > 100 µM (inactive)
- C[N+](C)(C)Cc1c(CC#N)[nH]c2ccccc12: > 100 µM (inactive)
- C=CCC1C(=O)C(C(=O)OC)N2CCc3c([nH]c4ccccc34)C12 (centres undefined): > 100 µM (inactive)
- COC1/C=C\C=C(/C)C(=O)NC2=CC(=O)C(N)=C(CC(C)CC(OC)C(O)C(C)C=C(C)C1OC(N)=O)C2=O (centres undefined): < 0.01 µM (active)
- O=C(Nc1cccc2ccccc12)Oc1ccccc1C1CCCCC1: 20.9 µM (inactive)
- COc1cc2ccc(/C(C)=N/OC(C)=O)cc2cc1OC: > 100 µM (inactive)
- CCOc1ccc2nc(NC(=O)C(=O)C(C(=O)c3ccccc3F)C3OC(=O)c4ccccc43)sc2c1 (centres undefined): 27.9 µM (inactive)
